abundance fitness values for the variants below.
B1: DnaJ homolog subfamily C member 5, residues 16 to 77; numbered along this chain, Q9H3Z4 (parent)
chain: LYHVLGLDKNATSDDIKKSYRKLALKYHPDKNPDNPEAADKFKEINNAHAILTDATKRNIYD

# Variants of: B1
# method_description: abundance fitness (aPCA) (normalised: wild type 0, dead -1); higher = more abundant; growth selection in yeast, the domain comes from the species named
# test_parameters: Homo sapiens

mutant | abundance fitness
K57V | -0.656
P29H | -0.539
A24F | 0.213
K26D | -0.12
D15W | -0.271
I45G | -0.253
A39F | -0.56
Y20H | 0.109
N32L | -0.684
F42C | -0.243
I45P | -0.425
D8H | -0.42
K26P | -0.264
I45D | -0.311
N46Y | -0.312
K43W | -0.276
N32G | -0.434
L5S | -0.267
F42K | -0.188
K9E | 0.007
V4E | -0.374
I51R | -0.318
Y27E | -0.07
E44A | -0.135
D40Y | -0.05
H3Y | -0.489
K26I | 0.244
P29R | -0.422
N32H | -0.009
E44R | -0.435
N46K | -0.058
D30Y | -0.288
I45V | 0.007
F42Y | -0.017
L1E | -0.14
T12G | -0.472
S13W | -0.336
D15L | -0.412

Hello, the source for this data is the Human Domainome abundance scans (Beltran et al. 2025), in case you need it.
